Target: Peroxisome proliferator-activated receptor delta (Homo sapiens, UniProt Q03181)
Sequence (Q03181 whole entry): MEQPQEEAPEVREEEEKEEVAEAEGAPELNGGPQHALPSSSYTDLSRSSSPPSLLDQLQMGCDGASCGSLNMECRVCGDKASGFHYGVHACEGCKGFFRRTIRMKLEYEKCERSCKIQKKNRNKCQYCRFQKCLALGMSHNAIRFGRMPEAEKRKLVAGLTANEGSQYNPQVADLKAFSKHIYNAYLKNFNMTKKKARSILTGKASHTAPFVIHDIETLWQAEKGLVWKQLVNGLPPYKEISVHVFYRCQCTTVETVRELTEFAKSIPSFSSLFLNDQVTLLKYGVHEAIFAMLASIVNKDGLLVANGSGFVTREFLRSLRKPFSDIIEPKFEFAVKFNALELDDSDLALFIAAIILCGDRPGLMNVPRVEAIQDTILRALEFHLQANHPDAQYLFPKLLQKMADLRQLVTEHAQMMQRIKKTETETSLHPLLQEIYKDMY
Test: Agonist activity at human PPARdelta after 22 to 24 hrs by luciferase reporter gene assay
So I've got a bunch of compounds here, and I need their EC50 values.
Answers are plain numbers, in µM.

>  <compound-structure>
COc1ccc(COc2ccc(CNc3cccc(OC(C)(C)C(=O)O)c3)cc2)cc1

>  <unit-info>
µM

>  <recorded-measurement>
38.6

$$$$

Here is the next item to consider.
Query block: Could you tell me which EC50 is on file for COc1ccc(COc2ccc(CNc3cccc(OC(C)(C)C(=O)O)c3)c(OCc3ccc(OC)cc3)c2)cc1 ?
Result block: 8.9
